Cited source: patent US20200353078A1

Molecular target: T1, Cynomolgus IL-33 Flag®His (cynomolgus monkey)
T1 construct: C-terminal FLAG 10xHis tag, E. coli; also called Mature Cynomolugus IL-33; cyno IL-33 FH
T1 chain: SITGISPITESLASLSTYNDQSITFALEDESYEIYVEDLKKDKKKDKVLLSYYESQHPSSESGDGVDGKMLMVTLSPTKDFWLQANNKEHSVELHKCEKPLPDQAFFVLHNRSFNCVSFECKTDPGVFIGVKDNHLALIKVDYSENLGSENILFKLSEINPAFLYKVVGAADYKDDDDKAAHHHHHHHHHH
Experiment: ELISA, biotinylated antigen on streptavidin plate, anti-human IgG HRP
pEC50: −log10 of the molar value.
Recorded measurements of pEC50, one per entry

{"columns": ["binder", "pEC50"],
 "data": [
  ["IL330099 IgG (antibody, V domains shown, IgG1 or IgG1-TM) VH: QVQLQQSGAEVKKPGASVKVSCKASGYTFTSFYMNWVRQAPGQGLEWMGIISPRGGTTSYAQNFQGRVTMTRDTSTSTVYMELSGLRSDDTAVYYCATESFYYGSGTYSGDYYLYSGMADWGKGTLVTVSS VL: SSELTQDPAVSAALGQTVRITCQGDSLRSYYASWYQQKPGQAPVLVIYGKNDRPSGIPDRFSGSSSGNTASLTITGAQAEDEADYYCNSRDSSGNHVVFGGGTKLTVL", 9.46],
  ["IL330149 IgG (antibody, V domains shown, IgG1 or IgG1-TM; also called IL33149) VH: EVQLLESGGGLVQPGGSLRLSCAASGFTFSSYAMSWVRQAPGKGLEWVSAISGSGGSTYYADSVKGRFTISRDNSKNTLYLQMNSLRAEDTAVYYCVRTLAYSTSWFFDYWGRGTLVTVSS VL: SYELTQPPAVSVSPGQTARITCSGDALPKKYAYWYQQKSGQAPVLVIYEDAKRPSGIPERFSGSSSGTMATLTVSGAQVEDEADYYCYSTDSSGPVFGGGTKLTVL", 9.46],
  ["IL330101 IgG (antibody, V domains shown, IgG1 or IgG1-TM; also called mAb IL330101; IL3300101) VH: EVQLLESGGGLVQPGGSLRLSCAASGFTFSSYAMSWVRQAPGKGLEWVSAISGSGGSTYYADSVKGRFTISRDNSKNTLYLQMNSLRAEDTAVYYCVRVVAGYFDSWGRGTLVTVSS VL: SYVLTQPPSVSVSPGQTARITCSGDALPKQYAHWYQQKPGQAPALVIYKDTERPSGIPERFSGSSSGTTVTLTISGVQAEDEADYYCQSADSSGASRVFGGGTKVTVL", 8.92],
  ["IL330107 IgG (antibody, V domains shown, IgG1 or IgG1-TM) VH: QMQLVQSGGGVVQPGGSLRLSCAASGFTFSSYAMSWVRQAPGKGLEWVSAISGSGGSTYYADSVKGRFTISRDNSKNTLYLQMNSLRAEDTAVYYCAKPFPSYWYFDLWGKGTLVTVSS VL: SYVLTQPPSVSVSPGQTARITCSGDALPKQYAYWYQQKPGQAPVLVIYKDSERPSGIPERFSGSSSGTTVTLTISGVQAEDEADYYCQSADSSGTYRVFGGGTQLTVL", 8.96],
  ["IL330065 IgG (antibody, V domains shown, IgG1 or IgG1-TM (L234F, L235E, P331S); functional data combine both formats) VH: EVQLVQSGAEVKKPGTAVKISCKASGYTFTDYYIHWVQQAPGKGLEWMGLVDPEDGETKYAEKFQGRVSITADTSTDTAYMELRSLTSEDTAVYFCTMGWAQWGRGTLVTVSS VL: QSVLTQPPSASGTPGQRVTISCSGSSSNIGSNYVYWYQQVPGTAPKLVIYRDFQRPSGVPDRFSGSKSGNSASLVISGLRSEDEGEYVCAAWDDSLTGPRFGGGTKVTVL", 9.18]
]}
